Reference for the values: paper PMC10397247

In this section we review reported interaction score values for a set of binders.
# Study system: T1, 4H55-AA
# T1 chain: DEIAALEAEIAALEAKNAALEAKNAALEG
# Test description: two-hybrid library CCmax;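 further: natural log of median RNA to DNA barcode read ratio; higher means stronger binding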
Measured quantity: interaction score

| Binder | Result |
| --- | --- |
| DEIAALEAKNAALKAKIAALEAEIAALEG [4H481-AA] | -1.31 |
| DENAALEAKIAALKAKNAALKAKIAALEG [4H1405-AA] | -1.42 |
| DEIAALEAEIAALEAKNAALEAKNAALEG [4H55-AA] | -1.54 |
| DKNAALKAEIAALEAENAALEAKIAALEG [4H3605-AA] | -1.29 |
| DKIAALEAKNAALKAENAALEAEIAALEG [4H2513-AA] | -1.88 |
